Target: T1, biotinylated human DLL3 protein expressed as a human IgG1 fusion protein (human, UniProt Q9NYJ7 27-492, limits assumed, biotinylated)
T1 sequence: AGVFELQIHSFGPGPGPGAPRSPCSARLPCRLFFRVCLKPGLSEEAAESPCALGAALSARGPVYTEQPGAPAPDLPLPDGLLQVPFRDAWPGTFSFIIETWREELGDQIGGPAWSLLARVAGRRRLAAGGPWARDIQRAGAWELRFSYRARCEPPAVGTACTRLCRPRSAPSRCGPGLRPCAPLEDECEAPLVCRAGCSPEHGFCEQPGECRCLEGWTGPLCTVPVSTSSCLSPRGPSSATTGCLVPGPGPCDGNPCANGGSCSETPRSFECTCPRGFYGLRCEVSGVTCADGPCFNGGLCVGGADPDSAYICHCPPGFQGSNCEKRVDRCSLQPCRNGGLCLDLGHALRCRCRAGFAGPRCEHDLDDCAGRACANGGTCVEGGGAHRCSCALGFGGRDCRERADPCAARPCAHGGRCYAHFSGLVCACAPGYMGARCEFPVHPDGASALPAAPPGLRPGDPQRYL
Assay: Octet BLI, single 50 nM
pKd: −log10 of the molar value.

BINDER	pKd
1A010 anti-DLL3 trispecific protein (other, not shown: linker 1808, anti-albumin sdAb, linker 1808, anti-CD3 fragment, His6 1819) EVQLVESGGGLVQPGGSLTLSCVASGSTSSINAYGWYRRAPGKQRELVAGISSDGSKVYADSVKGRFTISRDNAKNSVYLQMNSLRAEDTAVYYCYYFRTVYGSSMRYWGQGTLVTVSS	8.19
2A08 anti-DLL3 trispecific protein (other, not shown: linker 1808, anti-albumin sdAb, linker 1808, anti-CD3 fragment, His6 1819) EVQLVESGGGLVQPGGSLTLSCVASGSTKSINAMGWYRRAPGKQRELVAGISSDGSKVYRDSVKGRFTISRDNAKNSVYLQMNSLRAEDTAVYYCYYFRTSSGSSMRYWGQGTLVTVSS	8.11
2H02 anti-DLL3 trispecific protein (other, not shown: linker 1808, anti-albumin sdAb, linker 1808, anti-CD3 fragment, His6 1819) EVQLVESGGGLVQPGGSLTLSCVASGSTSSINAMAWYRRAPGKQRELAAGISSDGSKVYADSVKGRFTISRDNAKNSVYLQMNSLRAEDTAVYYCYYFHTVSGSSMRYWGQGTLVTVSS	8.36
2G07 anti-DLL3 trispecific protein (other, not shown: linker 1808, anti-albumin sdAb, linker 1808, anti-CD3 fragment, His6 1819) EVQLVESGGGLVQPGGSLTLSCVASGSTSSINAMAWYRRAPGKQRELVAGISSDGSKVYADSVKGRFTISRDNAKNSVYLQMNSLRAEDTAVYYCYYFRTVQGSSMRYWGQGTLVTVSS	8.19
